So I've got a bunch of molecules here, and I need their %Inh values.
tested on: DDR2; conditions: concentration: 1 μM, replicates: in singlicate; n = 1;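 also: KINOMEscan kinase panel screen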
A number alone suffices; assume %.

Lookup: Query (molecule): `O=C(Nc1ccccc1)Nc1cccc(Oc2ccc3nccn3n2)c1` ; field requested: %Inh
Found: 1

Lookup: Query (molecule): `CC(C)(C)c1ccc(C(=O)Nc2cn3cc(-c4cccnc4)ccc3n2)cc1` ; field requested: %Inh
Found: 0

Lookup: Query (molecule): `Cc1c(Cn2ccn3c(=O)cc(N4CCOCC4)nc23)cccc1C(F)(F)F` ; field requested: %Inh
Found: 8

Lookup: Query (molecule): COc1cc(Nc2nccc(N3CCC(NC(=O)Nc4cc(C)ccc4C)C3)n2)cc(OC)c1OC (centres unmarked) ; field requested: %Inh
Found: 10

Lookup: Query (molecule): `COc1ccc(C2=C(Nc3cccc(C(=O)O)c3)C(=O)NC2=O)cc1` ; field requested: %Inh
Found: 19

----------
tested on: ACVR1; settings: concentration: 1 μM, replicates: in singlicate; n = 1
TEST READOUT: %Inh (%)
A number alone suffices; assume %.

Lookup: Query (molecule): `Cc1ccc(NC(=O)Nc2cc(C(C)(C)C)nn2-c2ccccc2)cc1` ; field requested: %Inh
Found: 7

Lookup: Query (molecule): `CN1C(=O)C(Nc2ccc(Cl)c(C(=O)O)c2)=C(c2ccc(Cl)cc2)C1=O` ; field requested: %Inh
Found: 12

Lookup: Query (molecule): `COc1cc2ncnc(Nc3ccc4nc(-c5ccccc5)[nH]c4c3)c2cc1OC.Cl` ; field requested: %Inh
Found: 0

Lookup: Query (molecule): `O=C(Nc1n[nH]c2nc(-c3nccs3)c(Br)cc12)C1CC1` ; field requested: %Inh
Found: 6

Lookup: Query (molecule): `Cc1ccc(NC(=O)Nc2cccc(Cl)c2)cc1-c1ccc(C(=O)Nc2ccncc2)cc1` ; field requested: %Inh
Found: 0

Lookup: Query (molecule): `COc1cccc(-c2cc(-c3c[nH]nc3-c3ccccn3)ccn2)c1` ; field requested: %Inh
Found: 24

Lookup: Query (molecule): `O=C(Nc1ccccc1)Nc1cccc(Oc2ccc3nccn3n2)c1` ; field requested: %Inh
Found: 0

Lookup: Query (molecule): `O=C(Nc1n[nH]c2nc(-c3nccs3)c(Br)cc12)C1CCCC1` ; field requested: %Inh
Found: 7

Lookup: Query (molecule): `Cl.O=C(Nc1cccc(-c2nn3ncccc3c2-c2ccnc(Nc3cccnc3)n2)c1)c1c(F)cccc1F` ; field requested: %Inh
Found: 0

----------
So I've got a bunch of compounds here, and I need their %Inh values.
tested on: DMPK2; construct: gene CDC42BPG; conditions: concentration: 1 μM, replicates: in singlicate; n = 1

Lookup: Query (compound): `Cc1cccc(-c2nc(-c3ccc(S(C)(=O)=O)cc3)sc2-c2ccnc(NCCc3ccccc3)c2)c1` ; field requested: %Inh
Found: 10%

Lookup: Query (compound): Cl.c1ccc(-c2n[nH]cc2-c2ccnc(-c3ccc(CN4CCOCC4)cc3)c2)nc1 [GW776245] ; field requested: %Inh
Found: 9%

Lookup: Query (compound): `Fc1cccc(COc2nnc(-c3ccc4c(c3)CCO4)o2)c1` ; field requested: %Inh
Found: 0%

Lookup: Query (compound): CCn1c(-c2cccnc2O)nc2cnccc21 [SB-736715] ; field requested: %Inh
Found: 0%

Lookup: Query (compound): Cc1ccccc1-n1cnc2c(N)ncnc21 [SKF-97510] ; field requested: %Inh
Found: 0%

Lookup: Query (compound): COc1cc2ncnc(Nc3ccc4nc(-c5ccccc5)[nH]c4c3)c2cc1OC.Cl [GW282450] ; field requested: %Inh
Found: 0%

Lookup: Query (compound): Nc1nc(-c2nccs2)c(-c2ccnc3ccccc23)s1 [GW693542] ; field requested: %Inh
Found: 6%

Lookup: Query (compound): COc1ccc(Nc2nccc(-c3cccc(NC(=O)c4cc5cc(F)ccc5[nH]4)c3)n2)cc1 [GSK1229782] ; field requested: %Inh
Found: 13%

Lookup: Query (compound): Cl.Oc1ccc(-c2nc(-c3ccccc3)[nH]c2-c2ccncc2)cc1 [SB-428218] ; field requested: %Inh
Found: 0%
